Test system: Wnt stimulated TCF transcriptional activity, HEK293-TS 112 TCF reporter cell line
EXPERIMENT_DESCRIPTION: Tankyrase 1 Assay (Example 119): Wnt3A-stimulated TOPbrite TCF luciferase reporter
Format: cell-based
SETUP_CONDITIONS: Compounds I-59 to I-144, procedure in Example 119 (0.5 ug/mL Wnt3A, 16 hours); read-out: TNKS1 (IC50)
Experimental: Inhibition of the Wnt stimulated TCF transcriptional activity by tankyrase inhibitors was determined utilizing a HEK293-TS 112 TCF reporter cell line. […] A ratio of TOPbrite Firefly Luciferase and SV40 Renillla Luciferase was calculated and the background from the neutral wells was subtracted yielding the final normalized measurement of TCF transcriptional activity. Compound IC50s were determined by four-parameter curve fitting using GeneData software.
MEASURED_METRIC: IC50 (nM)
Value expressed in nM; do not type the unit.

The molecule identified as Cc1cc(CN2CCN(c3nc4c(cnn4C)c(=O)[nH]3)CC2)no1 registered its IC50 at 566

The molecule identified as Cn1ncc2c(=O)[nH]c(N3CCN(c4c(F)cc(OC5CCS(=O)(=O)CC5)cc4F)CC3)nc21 registered its IC50 at 7.9

The molecule identified as Cn1ncc2c(=O)[nH]c(N3CCN(CC4CCCCC4)CC3)nc21 registered its IC50 at 80.9

The molecule identified as Cn1ncc2c(=O)[nH]c(N3CCC(C)(c4ccn(CC(C)(C)O)n4)CC3)nc21 registered its IC50 at 223
